Reference source: patent US12583855B2

# System tested: RET^WT (Homo sapiens, UniProt P07949)
# Sequence (P07949 658-1114): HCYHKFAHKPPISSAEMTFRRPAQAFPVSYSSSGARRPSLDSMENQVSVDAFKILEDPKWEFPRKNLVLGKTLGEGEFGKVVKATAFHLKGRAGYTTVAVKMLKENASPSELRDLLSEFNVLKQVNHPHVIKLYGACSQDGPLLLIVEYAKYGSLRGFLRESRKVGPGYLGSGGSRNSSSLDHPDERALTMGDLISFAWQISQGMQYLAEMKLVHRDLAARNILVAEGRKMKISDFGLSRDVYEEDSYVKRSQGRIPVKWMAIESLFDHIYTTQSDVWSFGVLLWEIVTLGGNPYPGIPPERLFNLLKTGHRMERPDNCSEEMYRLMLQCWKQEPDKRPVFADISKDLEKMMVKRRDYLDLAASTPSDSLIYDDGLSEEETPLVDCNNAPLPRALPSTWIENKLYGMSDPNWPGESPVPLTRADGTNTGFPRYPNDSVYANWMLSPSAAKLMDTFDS
Some compounds, each annotated with its measured log10 of IC50.
The figures below represent log10 of IC50, where IC50 is stated in pM.

COc1ccc(CN2CCN(c3ccc(-c4cc(N5CC(F)(F)C5)cn5ncc(C#N)c45)cn3)CC2)cn1
2.63
Cn1cc(-c2cc(-c3cnc(N4CCN(Cc5ccc(S(C)(=O)=O)cc5)CC4)cn3)c3c(C#N)cnn3c2)cn1
2.81
Cn1cc(-c2cc(-c3ccc(N4CC5CC(C4)N5Cc4ccc(S(C)(=O)=O)cn4)nc3)c3c(C#N)cnn3c2)cn1
2.52
CS(=O)(=O)c1ccc(CN2CCN(c3ccc(-c4cc(-c5cnn(C(F)F)c5)cn5ncc(C#N)c45)cn3)CC2)nc1
3.20
CSc1ccc(CN2C3CC2CN(c2ccc(-c4cc(OCC(C)(C)O)cn5ncc(C#N)c45)cn2)C3)cn1
3.24

The value of log10 of IC50 recorded for Cn1cc(-c2cc(-c3ccc(N4CC5CC(C4)N5Cc4ccc(S(C)(=O)=O)nc4)nc3)c3c(C#N)cnn3c2)cn1 when tested on RET^WT (Homo sapiens, UniProt P07949) reads 2.47

The value of log10 of IC50 recorded for Cn1cc(-c2cc(-c3ccc(N4CC5CC(C4)N5Cc4ccccc4S(C)(=O)=O)nc3)c3c(C#N)cnn3c2)cn1 when tested on RET^WT (Homo sapiens, UniProt P07949) reads 2.12

The value of log10 of IC50 recorded for CS(=O)(=O)c1cccc(CN2C3CC2CN(c2ccc(-c4cc(N5CC(F)(F)C5)cn5ncc(C#N)c45)cn2)C3)c1 when tested on RET^WT (Homo sapiens, UniProt P07949) reads 2.69

The value of log10 of IC50 recorded for CN(C)C(=S)N1CCN(c2ccc(-c3cc(-c4cnn(C)c4)cn4ncc(C#N)c34)cn2)CC1 when tested on RET^WT (Homo sapiens, UniProt P07949) reads 2.94

The value of log10 of IC50 recorded for CS(=O)(=O)c1ccc(CN2C3CC2CN(c2ccc(-c4cc(-c5cn[nH]c5)cn5ncc(C#N)c45)cn2)C3)cc1 when tested on RET^WT (Homo sapiens, UniProt P07949) reads 1.86

The value of log10 of IC50 recorded for Cn1cc(-c2cc(-c3ccc(N4CC5CC(C4)N5Cc4cccc(S(C)(=O)=O)c4)nc3)c3c(C#N)cnn3c2)cn1 when tested on RET^WT (Homo sapiens, UniProt P07949) reads 1.96

The value of log10 of IC50 recorded for CS(=O)(=O)c1ccc(CN2CCN(c3ccc(-c4cc(-c5cnn(C(F)F)c5)cn5ncc(C#N)c45)cn3)CC2)cn1 when tested on RET^WT (Homo sapiens, UniProt P07949) reads 3.47

The value of log10 of IC50 recorded for COc1ccc(CN2C3CC2CN(c2ccc(-c4cc(N5CC(C#N)C5)cn5ncc(C#N)c45)cn2)C3)cn1 when tested on RET^WT (Homo sapiens, UniProt P07949) reads 2.62

The value of log10 of IC50 recorded for COCC1=C(C(=O)N2CCN(c3ccc(-c4cc(-c5cnn(C)c5)cn5ncc(C#N)c45)cn3)CC2)CCC1 when tested on RET^WT (Homo sapiens, UniProt P07949) reads 2.81

----------
# System tested: VEGFR2 (Homo sapiens)
# Sequence (P35968 20-1356): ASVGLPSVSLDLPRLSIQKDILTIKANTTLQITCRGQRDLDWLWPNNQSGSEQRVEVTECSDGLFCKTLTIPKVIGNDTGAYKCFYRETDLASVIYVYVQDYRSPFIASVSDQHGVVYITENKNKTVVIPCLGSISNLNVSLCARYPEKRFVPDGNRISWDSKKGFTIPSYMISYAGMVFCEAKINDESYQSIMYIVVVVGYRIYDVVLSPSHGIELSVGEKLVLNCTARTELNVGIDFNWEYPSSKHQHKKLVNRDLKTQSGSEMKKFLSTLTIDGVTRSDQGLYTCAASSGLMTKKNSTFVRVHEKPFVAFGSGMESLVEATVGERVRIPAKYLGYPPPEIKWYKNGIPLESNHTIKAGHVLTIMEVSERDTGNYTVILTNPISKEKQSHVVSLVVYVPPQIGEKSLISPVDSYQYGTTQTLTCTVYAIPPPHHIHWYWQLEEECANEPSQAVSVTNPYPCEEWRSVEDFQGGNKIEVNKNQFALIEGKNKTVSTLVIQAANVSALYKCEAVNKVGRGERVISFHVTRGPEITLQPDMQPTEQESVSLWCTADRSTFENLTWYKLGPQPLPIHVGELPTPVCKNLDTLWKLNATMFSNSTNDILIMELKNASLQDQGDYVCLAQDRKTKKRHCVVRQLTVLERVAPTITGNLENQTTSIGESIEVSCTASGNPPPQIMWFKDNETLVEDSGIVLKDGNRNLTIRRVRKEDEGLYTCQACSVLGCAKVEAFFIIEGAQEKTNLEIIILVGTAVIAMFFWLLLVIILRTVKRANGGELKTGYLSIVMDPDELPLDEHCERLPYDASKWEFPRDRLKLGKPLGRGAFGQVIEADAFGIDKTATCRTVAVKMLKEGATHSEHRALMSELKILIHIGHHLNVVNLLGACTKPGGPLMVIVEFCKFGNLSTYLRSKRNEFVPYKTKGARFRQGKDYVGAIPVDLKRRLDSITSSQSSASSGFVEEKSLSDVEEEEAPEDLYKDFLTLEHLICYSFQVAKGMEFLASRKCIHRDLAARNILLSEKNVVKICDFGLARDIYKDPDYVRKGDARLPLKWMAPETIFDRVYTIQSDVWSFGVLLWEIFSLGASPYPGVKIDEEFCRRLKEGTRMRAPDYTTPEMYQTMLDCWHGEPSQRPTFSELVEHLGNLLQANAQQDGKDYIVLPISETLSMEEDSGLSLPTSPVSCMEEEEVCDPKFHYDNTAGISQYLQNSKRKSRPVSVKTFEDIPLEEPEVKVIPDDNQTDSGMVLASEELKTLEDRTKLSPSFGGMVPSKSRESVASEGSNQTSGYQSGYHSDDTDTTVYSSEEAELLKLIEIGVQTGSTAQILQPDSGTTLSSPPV
# Protocol notes: In vitro enzymatic activity assay on VEGFR2 (HTRF)
# Format: biochemical
# Test settings: GST-VEGFR2 0.1 nM, ATP 2.5 μM
Readout: pIC50
Quick note: pIC50 values are minus log10 of concentrations in mol/L.

Check out these entries, answers already filled in.
COc1ccc(CN2CCN(c3ccc(-c4cc(N5CC(F)(F)C5)cn5ncc(C#N)c45)cn3)CC2)cn1 [Example 26]
7.02
CS(=O)(=O)c1cccc(CN2C3CC2CN(c2ccc(-c4cc(-c5cnn(C(F)F)c5)cn5ncc(C#N)c45)cn2)C3)c1 [Example 55]
7.71
Cn1cc(-c2cc(-c3ccc(N4CC5CC(C4)N5Cc4ccc(S(C)(=O)=O)nc4)nc3)c3c(C#N)cnn3c2)cn1 [Example 76]
8.55
CSc1ccc(CN2CCN(c3ccc(-c4cc(-c5cnn(C)c5)cn5ncc(C#N)c45)cn3)CC2)cn1 [Example 10]
7.86
CS(=O)(=O)c1ccccc1CN1CCN(c2ccc(-c3cc(-c4cnn(C(F)F)c4)cn4ncc(C#N)c34)cn2)CC1 [Example 48]
8.00
Cn1cc(-c2cc(-c3ccc(N4CCN(C(=O)C5=CCCC5)CC4)nc3)c3c(C#N)cnn3c2)cn1 [Example 2]
7.87
Cn1cc(-c2cc(-c3ccc(N4CC5CC(C4)N5Cc4ccccc4S(C)(=O)=O)nc3)c3c(C#N)cnn3c2)cn1 [Example 43]
7.87
Cn1cc(-c2cc(-c3ccc(N4CC5CC(C4)N5Cc4cccc(S(C)(=O)=O)c4)nc3)c3c(C#N)cnn3c2)cn1 [Example 20]
8.19
CS(=O)(=O)c1cccc(CN2C3CC2CN(c2ccc(-c4cc(N5CC(F)(F)C5)cn5ncc(C#N)c45)cn2)C3)c1 [Example 64]
7.81
C=CC(=O)N1CCN(c2ccc(-c3cc(-c4cnn(C)c4)cn4ncc(C#N)c34)cn2)CC1 [Example 1]
8.35

Okay, now this compound:
The recorded pIC50 for CC1(O)CN(c2cc(-c3ccc(N4CC5CC(C4)N5Cc4cccc(S(C)(=O)=O)c4)nc3)c3c(C#N)cnn3c2)C1 [Example 65] is 7.71
